Molecular target: MMP-2 (Homo sapiens, UniProt P08253)
Construct: Human MMP-2 full length (aa 1-660)
Sequence (P08253 30-660): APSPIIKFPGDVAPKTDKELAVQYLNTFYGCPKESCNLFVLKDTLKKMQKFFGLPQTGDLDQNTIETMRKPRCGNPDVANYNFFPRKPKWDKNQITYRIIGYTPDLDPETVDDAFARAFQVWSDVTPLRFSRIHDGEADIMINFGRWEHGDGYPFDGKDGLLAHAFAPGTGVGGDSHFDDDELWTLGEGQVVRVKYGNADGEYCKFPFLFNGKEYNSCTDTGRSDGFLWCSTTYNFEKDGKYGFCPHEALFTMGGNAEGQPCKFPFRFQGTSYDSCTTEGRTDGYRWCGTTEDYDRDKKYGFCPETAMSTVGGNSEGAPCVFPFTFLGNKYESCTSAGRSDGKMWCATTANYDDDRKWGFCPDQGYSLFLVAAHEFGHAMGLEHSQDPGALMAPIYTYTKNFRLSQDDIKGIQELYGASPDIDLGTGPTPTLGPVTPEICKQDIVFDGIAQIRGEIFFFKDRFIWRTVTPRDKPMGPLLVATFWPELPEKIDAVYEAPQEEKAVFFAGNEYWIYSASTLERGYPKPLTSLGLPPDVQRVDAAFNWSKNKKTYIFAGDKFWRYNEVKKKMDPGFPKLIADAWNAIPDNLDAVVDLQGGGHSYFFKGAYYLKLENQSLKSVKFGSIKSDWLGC
Assay: MMP enzymatic assay (Trupoint peptide), MMP-2
Format: biochemical
measure: IC50 (nM)
// units = nM; emit number, no label

Prompt line: Output IC50 of `Cc1ccc(Oc2ccc(S(=O)(=O)N(CCN3CCOCC3)c3cccn(O)c3=O)cc2)cc1`
Response line: 3.5

Prompt line: Please give the documented IC50 of `Cc1ccc(Oc2ccc(N(Cc3cc(Br)cn(O)c3=O)S(C)(=O)=O)cc2)cc1`
Response line: 547

###

Task for the reader: assign each of the following compounds its reported IC50.
Biological target: MMP-2 (Homo sapiens, UniProt P08253)
Construct: Human MMP-2 full length (aa 1-660)
Sequence (P08253 30-660): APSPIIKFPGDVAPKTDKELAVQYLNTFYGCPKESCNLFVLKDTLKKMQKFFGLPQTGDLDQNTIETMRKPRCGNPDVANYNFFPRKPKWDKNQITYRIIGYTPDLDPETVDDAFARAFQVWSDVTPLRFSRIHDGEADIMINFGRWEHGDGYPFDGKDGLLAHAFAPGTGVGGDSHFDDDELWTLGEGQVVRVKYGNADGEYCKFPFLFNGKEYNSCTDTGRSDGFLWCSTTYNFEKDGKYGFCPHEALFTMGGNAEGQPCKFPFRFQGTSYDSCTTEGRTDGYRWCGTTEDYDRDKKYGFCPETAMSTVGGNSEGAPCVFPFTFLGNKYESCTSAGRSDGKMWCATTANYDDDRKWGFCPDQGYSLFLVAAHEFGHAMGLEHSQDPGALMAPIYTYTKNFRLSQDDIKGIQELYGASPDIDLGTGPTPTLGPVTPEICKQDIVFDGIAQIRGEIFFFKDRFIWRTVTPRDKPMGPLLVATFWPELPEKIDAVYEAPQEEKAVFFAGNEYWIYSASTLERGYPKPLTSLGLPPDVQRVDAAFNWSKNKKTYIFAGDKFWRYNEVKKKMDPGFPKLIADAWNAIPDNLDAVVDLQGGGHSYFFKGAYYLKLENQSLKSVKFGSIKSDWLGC
Assay: MMP enzymatic assay (Trupoint peptide), MMP-2
Assay type: biochemical
The figure you give is taken to be in µM; do not add the unit.

Prompt line: In one line, give reported IC50 of the entry CC1CN(CC2=CC[C@@H](NS(=O)(=O)c3ccc(Oc4ccc(Cl)cc4)cc3)C(=O)N(O)C2)CC(C)O1 (stereo partly shown) .
Response line: 0.00125

Prompt line: Please give measured IC50 of the following entry: `CN(c1cccn(O)c1=O)S(=O)(=O)c1ccc(-c2ccc(Cl)cc2)cc1`
Response line: 1.3
